# System: RSV Long strain
# experiment: Viral cytopathic effect (CPE) assay, anti-RSV activity
# Format: cell-based, Respiratory Syncytial Virus
# measurementContext: human respiratory syncytial virus, 144 h, RSV Long strain (ATCC); cell viability after 6 days, Cell Counting kit-8
# Protocol: Viral cytopathic effect (CPE) assay: To measure anti-RSV activity of compounds, 96-well plates are seeded with 6×10^3 cells per well in Dulbecco's modified Eagle's medium (DMEM) containing 10% fetal bovine serum (FBS). […] The viability of cells is assessed after 6 days using Cell Counting kit-8 (Dojindo Molecular Technologies). […]
resultType: EC50 (µM)
Provide the reading as a plain figure in µM.

Field: example entries. Status: answers known.
Give its EC50 value. Item: Cc1ccc2nc(N3CCS(=O)(=O)c4ccccc4C3)cc(N3CCC(NC4COC4)C3)c2c1 (centres unmarked)
0.253

Now the same for `Cc1ccc2nc(N3CCS(=O)(=O)c4ccccc4C3)nc(NCC3(CN)COC3)c2c1`
0.002

Also Cc1ccc2nc(N3CCS(=O)(=O)c4ccccc4C3)cc(N3CCC(C)(N)C3)c2c1 (centres unmarked) , if possible.
0.035

// repeat for `COc1ccc2nc(N3CCCc4ccccc4C3)cc(NCCN)c2c1` and report
0.323

# repeat for `Cc1ccc2nc(N3CCS(=O)(=O)c4ccccc4C3)cc(N3CCOCC3)c2c1`
8.87

And the next one, `NCCCNc1cc(N2CCS(=O)(=O)c3ccccc3C2)nc2ccc(C(F)(F)F)cc12` ?
0.616

Next compound up: `Cc1ccc2nc(N3CCS(=O)(=O)c4ccccc4C3)nc(NCC3(N)CC3)c2c1`
0.006

Turning now to a further compound:
Reported EC50, compound `NCC1(CNc2cc(N3CCS(=O)(=O)c4ccccc4C3)nc3ccc(C(=O)O)cc23)COC1` : ____
1.08

* * *

# System: RSV Long strain
# experiment: Viral cytopathic effect (CPE) assay, anti-RSV activity
# Assay type: cell-based, Respiratory Syncytial Virus
# measurementContext: human respiratory syncytial virus, 144 h, RSV Long strain (ATCC); cell viability after 6 days, Cell Counting kit-8
Here the recorded EC50 is given for each entry.
Quick reminder: number only, in µM, skip the unit.

// returns reported EC50 for input Cc1ccc2nc(N3CCS(=O)(=O)c4ccccc4C3)cc(N[C@H]3CC[C@H](O)CC3)c2c1 [Example 8-1]
5.51

Further cases:
Can you look up the measured EC50 of Cc1cc2c(NCCN)cc(N3CCS(=O)(=O)c4ccccc4C3)nc2cc1F [Example 9-24] for me?
0.024

Another: Cc1ccc2nc(N3CC[S+]([O-])c4ccccc4C3)cc(N[C@@H]3CNC[C@H]3F)c2c1 (relative stereo) [Example 28-5]
0.003

And then Cc1ccc2nc(N3CCS(=O)(=O)c4ccccc4C3)cc(N)c2c1 [Example 39] , what is it?
0.092

* * *

As shown below, each of these compounds has a reported log10(EC50) value.
# Tested on: RSV Long strain
# experiment: Viral cytopathic effect (CPE) assay, anti-RSV activity
# Type: cell-based, Respiratory Syncytial Virus
# measurementContext: human respiratory syncytial virus, 144 h, RSV Long strain (ATCC); cell viability after 6 days, Cell Counting kit-8
The figures below represent log10 of EC50, where EC50 is stated in µM.

Past entries and their recorded results:
Fill in: log10(EC50) of Cc1ccc2nc(N3CCC(F)(F)c4ccccc4C3)cc(NC3CCCC(N)C3)c2c1 (centres unmarked) is ___
-0.06

// same read-out, input: `Cc1ccc2nc(N3CCC(F)(F)c4ccccc4C3)cc(NCCCO)c2c1`
0.63

Further cases:
What value of measured log10(EC50) is listed for `Cc1ccc2nc(N3CCS(=O)(=O)c4ccccc4C3)cc(N3CCN(C)CC3)c2c1` ?
0.31

Same for C[S+]([O-])c1ccc2nc(N3CCS(=O)(=O)c4ccccc4C3)cc(NCCCN)c2c1 (centres unmarked)
0.74

Same read-out for `Cc1ccc2nc(N3CCS(=O)(=O)c4ccccc4C3)cc(NCC3(N)COC3)c2c1F` ?
-1.66

Okay, and `Cc1cc2c(NCC3(N)COC3)cc(N3CCS(=O)(=O)c4ccccc4C3)nc2c(F)c1F` ?
-0.40

Proceed to `Cc1ccc2nc(N3CCS(=O)(=O)c4ccccc4C3)cc(NCCCCCCCN)c2c1`
0.89

Thanks! And Cc1ccc2nc(N3CC[S+]([O-])c4ccccc4C3)nc(NCC3(N)COC3)c2c1 (centres unmarked) ?
-2.15

Entry source: patent US8871756B2
